Assay: Systemic half-life after oral or intravenous administration in dogs
Assay type: in vivo, dogs (beagle)
Conditions: oral solution, half-life of intact prodrug, NC = plasma concentration of prodrug too low to calculate half-life, or undetected, unit inferred
readout-type: log10(Dog T1/2 Prodrug) (log10 of the value in min)

INSERT INTO measurements (molecule, readout_type, assay_result) VALUES
  ('Cc1c(OCC(F)(F)F)ccnc1C[S+]([O-])c1nc2ccccc2n1S(=O)(=O)c1ccc(C(=O)O)cc1 (stereo not shown) [Compound 18]', 'log10(Dog T1/2 Prodrug)', 0.73),
  ('COc1ccc2c(c1)nc([S+]([O-])Cc1ncc(C)c(OC)c1C)n2S(=O)(=O)c1ccc(OCC(C)(C)C(=O)O)cc1 (stereo not shown) [Compound 3]', 'log10(Dog T1/2 Prodrug)', 1.27),
  ('Cc1cc(OCC(=O)O)cc(C(C)C)c1S(=O)(=O)n1c([S+]([O-])Cc2nccc(OCC(F)(F)F)c2C)nc2ccccc21 (stereo not shown) [Compound 17]', 'log10(Dog T1/2 Prodrug)', 1.95),
  ('COCCCOc1ccnc(C[S+]([O-])c2nc3ccccc3n2S(=O)(=O)c2c(C)cc(OCC(=O)O)cc2C)c1C (stereo not shown) [Compound 32]', 'log10(Dog T1/2 Prodrug)', 1.50),
  ('COc1ccc2c(c1)nc([S+]([O-])Cc1ncc(C)c(OC)c1C)n2S(=O)(=O)c1cc(C(=O)O)ccc1C (stereo not shown) [Compound 27]', 'log10(Dog T1/2 Prodrug)', 0.85),
  ('Cc1c(OCC(F)(F)F)ccnc1C[S+]([O-])c1nc2ccccc2n1S(=O)(=O)c1cccc(C(=O)O)c1 (stereo not shown) [Compound 7]', 'log10(Dog T1/2 Prodrug)', 1.09),
  ('COc1ccc2c(c1)nc([S+]([O-])Cc1ncc(C)c(OC)c1C)n2S(=O)(=O)c1ccc(CC(=O)O)cc1 (stereo not shown) [Compound 5]', 'log10(Dog T1/2 Prodrug)', 1.21);
